SYSTEM_UNDER_TEST: FGF-2 (Homo sapiens, UniProt P09038)
Sequence (P09038 143-288, species assumed): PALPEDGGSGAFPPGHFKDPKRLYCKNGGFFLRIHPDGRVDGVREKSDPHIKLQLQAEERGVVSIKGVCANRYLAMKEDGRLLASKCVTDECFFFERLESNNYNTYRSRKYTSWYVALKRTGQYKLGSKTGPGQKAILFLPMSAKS
PROCEDURE_SUMMARY: Growth factor binding assay (SPR solution affinity), FGF-2
MEASUREMENT_PARAMETERS: SPR, HBS-EP buffer containing 0.3 M NaCl, 25° C.; read-out: Kd FGF-2
pKd: −log10 of the molar value.
Please use condition met whenever pKd is not below 6, and condition not met whenever it is.

- CCCCCCCCCCCCOC1OC(COS(=O)(=O)O)C(OS(=O)(=O)O)C(OS(=O)(=O)O)C1OC1OC(COS(=O)(=O)O)C(OS(=O)(=O)O)C(OC2OC(COS(=O)(=O)O)C(OS(=O)(=O)O)C(OC3OC(COS(=O)(=O)O)C(OS(=O)(=O)O)C(OC4OC(COS(=O)(=O)O)C(OS(=O)(=O)O)C(OS(=O)(=O)O)C4OS(=O)(=O)O)C3OS(=O)(=O)O)C2OS(=O)(=O)O)C1OS(=O)(=O)O (centres unmarked): condition met
- O=S(=O)(O)OCC1OC(OC2C(OCCCCCCCCCCCCn3cc(-c4cccc5ccccc45)nn3)OC(COS(=O)(=O)O)C(OS(=O)(=O)O)C2OS(=O)(=O)O)C(OS(=O)(=O)O)C(OC2OC(COS(=O)(=O)O)C(OS(=O)(=O)O)C(OC3OC(COS(=O)(=O)O)C(OS(=O)(=O)O)C(OC4OC(COS(=O)(=O)O)C(OS(=O)(=O)O)C(OS(=O)(=O)O)C4OS(=O)(=O)O)C3OS(=O)(=O)O)C2OS(=O)(=O)O)C1OS(=O)(=O)O (centres unmarked): condition met
- CC(=O)OC1CC2C(CCC3CC(OS(=O)(=O)O)CCC32C)C2CCC(C(C)CCC(=O)NC3OC(COS(=O)(=O)O)C(OC4OC(COS(=O)(=O)O)C(OC5OC(COS(=O)(=O)O)C(OC6OC(COS(=O)(=O)O)C(OS(=O)(=O)O)C(OS(=O)(=O)O)C6OS(=O)(=O)O)C(OS(=O)(=O)O)C5OS(=O)(=O)O)C(OS(=O)(=O)O)C4OS(=O)(=O)O)C(OS(=O)(=O)O)C3OS(=O)(=O)O)C12C (centres unmarked): condition met
- CC(C)CCC[C@@H](C)[C@H]1CC[C@H]2[C@@H]3CC[C@H]4C[C@@H](OCc5cn([C@@H]6O[C@H](COS(=O)(=O)O)[C@@H](O[C@H]7O[C@H](COS(=O)(=O)O)[C@@H](OS(=O)(=O)O)[C@H](OS(=O)(=O)O)[C@H]7OS(=O)(=O)O)[C@H](OS(=O)(=O)O)[C@H]6OS(=O)(=O)O)nn5)CC[C@]4(C)[C@H]3CC[C@]12C: condition not met
- CC(C)CCC[C@@H](C)[C@H]1CC[C@H]2[C@@H]3CCC4CC(O[C@@H]5O[C@H](COS(=O)(=O)O)[C@@H](O[C@@H]6O[C@H](COS(=O)(=O)O)[C@H](OS(=O)(=O)O)[C@H](OS(=O)(=O)O)[C@H]6OS(=O)(=O)O)[C@H](OS(=O)(=O)O)[C@H]5OS(=O)(=O)O)CC[C@]4(C)[C@H]3CC[C@]12C (some centres unmarked): condition not met
- O=S(=O)(O)OCC1OC(OC2C(OCCCCCCCCCCCCn3cc(-c4ccccc4)nn3)OC(COS(=O)(=O)O)C(OS(=O)(=O)O)C2OS(=O)(=O)O)C(OS(=O)(=O)O)C(OC2OC(COS(=O)(=O)O)C(OS(=O)(=O)O)C(OC3OC(COS(=O)(=O)O)C(OS(=O)(=O)O)C(OC4OC(COS(=O)(=O)O)C(OS(=O)(=O)O)C(OS(=O)(=O)O)C4OS(=O)(=O)O)C3OS(=O)(=O)O)C2OS(=O)(=O)O)C1OS(=O)(=O)O (centres unmarked): condition met
- CC(C)CCCC(C)C1CCC2C3CCC4CC(OC(C(OS(=O)(=O)[O-])C(OS(=O)(=O)O)C(OC5OC(COS(=O)(=O)O)C(OC6OC(COS(=O)(=O)O)C(OC7OC(COS(=O)(=O)O)C(OS(=O)(=O)O)C(OS(=O)(=O)O)C7OS(=O)(=O)O)C(OS(=O)(=O)O)C6OS(=O)(=O)O)C(OS(=O)(=O)O)C5OS(=O)(=O)O)C(COS(=O)(=O)O)OS(=O)(=O)O)[n+]5ccccc5)CCC4(C)C3CCC12C (centres unmarked): condition met
- CC(C)CCCC(C)C1CCC2C3CCC4CC(OC5OC(COS(=O)(=O)O)C(OC6OC(COS(=O)(=O)O)C(OS(=O)(=O)O)C(OS(=O)(=O)O)C6OS(=O)(=O)O)C(OS(=O)(=O)O)C5OS(=O)(=O)O)CCC4(C)C3CCC12C (centres unmarked): condition not met
- CC(C)CCCC(C)C1CCC2C3CCC4CC(OCc5cn(CCCOC6OC(COS(=O)(=O)O)C(OS(=O)(=O)O)C(OS(=O)(=O)O)C6OC6OC(COS(=O)(=O)O)C(OS(=O)(=O)O)C(OC7OC(COS(=O)(=O)O)C(OS(=O)(=O)O)C(OS(=O)(=O)O)C7OS(=O)(=O)O)C6OS(=O)(=O)O)nn5)CCC4(C)C3CCC12C (centres unmarked): condition met
- CC(C)CCCC(C)C1CCC2C3CCC4CC(OC5OC(COS(=O)(=O)O)C(OS(=O)(=O)O)C(OS(=O)(=O)O)C5OC5OC(COS(=O)(=O)O)C(OS(=O)(=O)O)C(OC6OC(COS(=O)(=O)O)C(OS(=O)(=O)O)C(OS(=O)(=O)O)C6OS(=O)(=O)O)C5OS(=O)(=O)O)CCC4(C)C3CCC12C (centres unmarked): condition met
- CC(C)CCCC(C)C1CCC2C3CCC4CC(OC5OC(COC6OC(COS(=O)(=O)O)C(OC7OC(COS(=O)(=O)O)C(OC8OC(COS(=O)(=O)O)C(OS(=O)(=O)O)C(OS(=O)(=O)O)C8OS(=O)(=O)O)C(OS(=O)(=O)O)C7OS(=O)(=O)O)C(OS(=O)(=O)O)C6OS(=O)(=O)O)C(OS(=O)(=O)O)C(OS(=O)(=O)O)C5OS(=O)(=O)O)CCC4(C)C3CCC12C (centres unmarked): condition met

----------
SYSTEM_UNDER_TEST: recombinant human heparanase (Homo sapiens)
Sequence (Q9Y251 158-543 limits assumed): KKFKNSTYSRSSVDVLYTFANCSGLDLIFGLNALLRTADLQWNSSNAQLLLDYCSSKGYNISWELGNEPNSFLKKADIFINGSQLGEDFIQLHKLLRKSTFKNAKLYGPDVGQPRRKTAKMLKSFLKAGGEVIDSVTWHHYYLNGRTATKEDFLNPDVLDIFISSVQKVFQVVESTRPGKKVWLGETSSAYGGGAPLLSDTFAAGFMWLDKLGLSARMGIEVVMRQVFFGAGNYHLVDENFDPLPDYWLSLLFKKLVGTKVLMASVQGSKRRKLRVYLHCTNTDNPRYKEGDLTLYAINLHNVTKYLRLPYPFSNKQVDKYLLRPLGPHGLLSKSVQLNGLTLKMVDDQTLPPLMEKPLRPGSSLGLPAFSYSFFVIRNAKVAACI
Sequence (Q9Y251 36-109 limits assumed): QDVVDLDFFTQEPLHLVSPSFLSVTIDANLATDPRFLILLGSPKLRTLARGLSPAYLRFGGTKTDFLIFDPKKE
PROCEDURE_SUMMARY: Heparanase inhibition assay (fondaparinux cleavage, WST-1)
MEASUREMENT_PARAMETERS: read-out: Ki Heparanase; IC50 converted into Ki; fondaparinux 100 μM, pH 5.0
Ki overview
VALUE_TYPE: Ki

• O=S(=O)(O)OCC1OC(OC2C(OCCCCCCCCCCCCn3cc(-c4ccccc4)nn3)OC(COS(=O)(=O)O)C(OS(=O)(=O)O)C2OS(=O)(=O)O)C(OS(=O)(=O)O)C(OC2OC(COS(=O)(=O)O)C(OS(=O)(=O)O)C(OC3OC(COS(=O)(=O)O)C(OS(=O)(=O)O)C(OC4OC(COS(=O)(=O)O)C(OS(=O)(=O)O)C(OS(=O)(=O)O)C4OS(=O)(=O)O)C3OS(=O)(=O)O)C2OS(=O)(=O)O)C1OS(=O)(=O)O (stereo not drawn) = 3.5 nM
• CC(C)CCCC(C)C1CCC2C3CCC4CC(OC5OC(COS(=O)(=O)O)C(OS(=O)(=O)O)C(OS(=O)(=O)O)C5OC5OC(COS(=O)(=O)O)C(OS(=O)(=O)O)C(OC6OC(COS(=O)(=O)O)C(OS(=O)(=O)O)C(OC7OC(COS(=O)(=O)O)C(OS(=O)(=O)O)C(OS(=O)(=O)O)C7OS(=O)(=O)O)C6OS(=O)(=O)O)C5OS(=O)(=O)O)CCC4(C)C3CCC12C (stereo not drawn) = 5.8 nM
• CC(=O)OC1CC2C(CCC3CC(OS(=O)(=O)O)CCC32C)C2CCC(C(C)CCC(=O)NC3OC(COS(=O)(=O)O)C(OC4OC(COS(=O)(=O)O)C(OC5OC(COS(=O)(=O)O)C(OC6OC(COS(=O)(=O)O)C(OS(=O)(=O)O)C(OS(=O)(=O)O)C6OS(=O)(=O)O)C(OS(=O)(=O)O)C5OS(=O)(=O)O)C(OS(=O)(=O)O)C4OS(=O)(=O)O)C(OS(=O)(=O)O)C3OS(=O)(=O)O)C12C (stereo not drawn) = 20 nM
